Test system: HepG2
Experiment: cytotoxicity call (relative viability < 0.9)
Conditions: 10 µM
In all, about 39,000 compounds went through this assay and about 3,300 (8.5%) were called active. The list comes from a sample in which actives are over-represented; it also holds close analogues and randomly drawn compounds.
Possible outcomes: t = active, f = inactive

>  <COMPOUND>
C[C@@H]1CCCCO[C@@H](CN(C)Cc2ccncc2)[C@@H](C)CN([C@H](C)CO)C(=O)c2cc(NC(=O)C3CCCCC3)ccc2O1

>  <CLASS_NAME>
f

$$$$
>  <COMPOUND>
O=C(C[C@H]1CC[C@@H]2[C@H](COC[C@H](O)CN2S(=O)(=O)c2ccc(Cl)cc2)O1)N[C@@H]1CCN(Cc2ccccc2)C1

>  <CLASS_NAME>
f

$$$$
>  <COMPOUND>
CO[C@@H]1CN(C)C(=O)c2ccc(NC(=O)Nc3ccccc3F)cc2OC[C@@H](C)N(Cc2ccccc2F)C[C@H]1C

>  <CLASS_NAME>
f

$$$$
>  <COMPOUND>
C[C@@H]1CN([C@@H](C)CO)C(=O)Cc2cc(NS(=O)(=O)c3ccc(F)cc3)ccc2O[C@@H]1CN(C)Cc1ccc(-c2ccccc2)cc1

>  <CLASS_NAME>
t

$$$$
>  <COMPOUND>
C[C@@H]1CN([C@@H](C)CO)C(=O)Cc2cc(NS(=O)(=O)c3ccccc3)ccc2O[C@@H]1CN(C)Cc1ccc(-c2ccccc2)cc1

>  <CLASS_NAME>
t

$$$$
>  <COMPOUND>
COC(=O)CCCCCNc1n[nH]c(=O)[nH]c1=O

>  <CLASS_NAME>
f

$$$$
>  <COMPOUND>
COc1ccc(NC(=O)N(C)C[C@H]2OCCCC[C@@H](C)Oc3ccc(NC(=O)c4ccccc4)cc3C(=O)N([C@@H](C)CO)C[C@@H]2C)cc1

>  <CLASS_NAME>
f

$$$$
>  <COMPOUND>
NC1CCN(C(=O)c2c[nH]c3ccccc23)CC1

>  <CLASS_NAME>
f

$$$$
>  <COMPOUND>
C[C@@H]1CN([C@@H](C)CO)C(=O)Cc2cc(NS(=O)(=O)c3ccc(F)cc3)ccc2O[C@H]1CN(C)Cc1ccc(-c2ccccc2)cc1

>  <CLASS_NAME>
f

$$$$
>  <COMPOUND>
O=C(C[C@@H]1C=C[C@H](NS(=O)(=O)c2ccccc2F)[C@H](CO)O1)NCCCN1CCOCC1

>  <CLASS_NAME>
f

$$$$
>  <COMPOUND>
O=C(Cn1ccc([N+](=O)[O-])n1)N1CCOCC1

>  <CLASS_NAME>
f

$$$$
>  <COMPOUND>
C[C@@H]1CN([C@H](C)CO)C(=O)Cc2cc(NS(=O)(=O)c3ccccc3)ccc2O[C@@H]1CN(C)Cc1ccc(-c2ccccc2)cc1

>  <CLASS_NAME>
f

$$$$
>  <COMPOUND>
COc1cc(N2CCC(N3CCN(C)CC3)CC2)ccc1Nc1ncc(Cl)c(Nc2ccccc2S(=O)(=O)C(C)C)n1

>  <CLASS_NAME>
t

$$$$
>  <COMPOUND>
O=C(C[C@@H]1CC[C@@H]2[C@H](COC[C@@H](O)CN2S(=O)(=O)c2ccc(Cl)cc2)O1)N[C@@H]1CCN(Cc2ccccc2)C1

>  <CLASS_NAME>
f

$$$$
>  <COMPOUND>
CO[C@@H]1CN(C)C(=O)c2ccc(NS(=O)(=O)c3cn(C)cn3)cc2OC[C@H](C)N(CCC(F)(F)F)C[C@@H]1C

>  <CLASS_NAME>
f

$$$$
>  <COMPOUND>
Cc1cc(Nc2ncc(Cl)c(Nc3ccccc3S(=O)(=O)C(C)C)n2)c(OC(C)C)cc1C1CCNCC1

>  <CLASS_NAME>
t

$$$$
>  <COMPOUND>
Cc1noc(C)c1NC(=O)Nc1ccc2c(c1)C(=O)N([C@H](C)CO)C[C@H](C)[C@@H](CN(C)C(=O)Nc1c(C)noc1C)OCCCC[C@@H](C)O2

>  <CLASS_NAME>
f

$$$$
>  <COMPOUND>
CCCNC(=O)N[C@H]1C=C[C@@H](CC(=O)N2CCN(C)CC2)O[C@@H]1CO

>  <CLASS_NAME>
f

$$$$
>  <COMPOUND>
COc1cc(N2CCC(O)CC2)ccc1Nc1cc(Nc2ccccc2S(=O)(=O)C(C)C)c2cc[nH]c2n1

>  <CLASS_NAME>
f

$$$$
>  <COMPOUND>
O=C(C[C@H]1CC[C@@H]2[C@H](COC[C@@H](O)CN2S(=O)(=O)c2ccc(Cl)cc2)O1)N[C@H]1CCN(Cc2ccccc2)C1

>  <CLASS_NAME>
f

$$$$
>  <COMPOUND>
Cc1noc(C)c1S(=O)(=O)Nc1ccc2c(c1)C(=O)N([C@@H](C)CO)C[C@H](C)[C@H](CN(C)C(=O)Nc1ccc3c(c1)OCO3)O2

>  <CLASS_NAME>
f

$$$$
>  <COMPOUND>
COc1cc(C(=O)N2CCC(N3CCN(C)CC3)CC2)ccc1Nc1ncc2c(n1)N(C)c1ccccc1C(=O)N2C

>  <CLASS_NAME>
t

$$$$
>  <COMPOUND>
C[C@H](CO)N1C[C@H](C)[C@@H](CN(C)Cc2ccc(-c3ccccc3)cc2)Oc2ccc(NS(=O)(=O)c3ccc(F)cc3)cc2CC1=O

>  <CLASS_NAME>
t

$$$$
>  <COMPOUND>
Cc1cnc(CNC(=O)c2c(=O)c3ccc(N4CCCN(C)CC4)nc3n3c2sc2ccccc23)cn1

>  <CLASS_NAME>
f

$$$$
>  <COMPOUND>
O=C(C[C@H]1CC[C@H]2[C@@H](COC[C@@H](O)CN2S(=O)(=O)c2ccc(Cl)cc2)O1)N[C@@H]1CCN(Cc2ccccc2)C1

>  <CLASS_NAME>
t

$$$$
>  <COMPOUND>
C[C@@H]1CN([C@@H](C)CO)C(=O)Cc2cc(NC(=O)Cc3cn(C)c4ccccc34)ccc2O[C@@H]1CN(C)S(C)(=O)=O

>  <CLASS_NAME>
f

$$$$
>  <COMPOUND>
O=C(C[C@@H]1CC[C@H]2[C@@H](COC[C@@H](O)CN2S(=O)(=O)c2ccc(Cl)cc2)O1)N[C@H]1CCN(Cc2ccccc2)C1

>  <CLASS_NAME>
f

$$$$
>  <COMPOUND>
C[C@H](CO)N1C[C@H](C)[C@H](CN(C)C(=O)NC2CCCCC2)OCCCC[C@H](C)Oc2ccc(NS(=O)(=O)c3ccccc3)cc2C1=O

>  <CLASS_NAME>
t

$$$$
>  <COMPOUND>
COc1cc(C(=O)NC2CCN(C)CC2)ccc1Nc1ncc2c(n1)N(C1CCC(O)CC1)CCC(=O)N2C (stereo not given)

>  <CLASS_NAME>
f

$$$$
>  <COMPOUND>
CCCNC(=O)C[C@H]1CC[C@@H]2[C@H](COc3ccc(NC(=O)c4ccc5c(c4)OCO5)cc3C(=O)N2C)O1

>  <CLASS_NAME>
f

$$$$

====

Test system: HepG2
Assay: cytotoxicity call (relative viability < 0.9)
Settings: 10 µM
Screen size: about 39,000 compounds; about 3,300 (8.5%) were called active. The sample holds actives, similar compounds and a random draw of the others, so the mix is not that of the screen.
Outcomes: active, inactive

>  <STRUCTURE_STRING>
C[C@@H]1CN([C@H](C)CO)C(=O)c2cccc(NC(=O)c3nc4ccccc4s3)c2O[C@@H]1CN(C)C(=O)Nc1cccc2ccccc12

>  <CLASS_NAME>
inactive

$$$$
>  <STRUCTURE_STRING>
COc1ccccc1CNC(=O)C[C@@H]1C[C@H]2c3cc(NS(=O)(=O)c4ccc(F)cc4)ccc3O[C@H]2[C@@H](CO)O1

>  <CLASS_NAME>
inactive

$$$$
>  <STRUCTURE_STRING>
C[C@H](CO)N1C[C@H](C)[C@H](CN(C)Cc2ccncc2)Oc2ccc(NS(=O)(=O)c3ccc(F)cc3)cc2CC1=O

>  <CLASS_NAME>
inactive

$$$$
>  <STRUCTURE_STRING>
C[C@@H]1CN([C@H](C)CO)C(=O)c2cccc(NS(=O)(=O)c3ccc(Cl)cc3)c2O[C@H]1CN(C)Cc1ccc(Cl)c(Cl)c1

>  <CLASS_NAME>
inactive

$$$$
>  <STRUCTURE_STRING>
C[C@H](CO)N1C[C@H](C)[C@@H](CN(C)C(=O)Nc2cccc3ccccc23)Oc2c(NC(=O)c3nc4ccccc4s3)cccc2C1=O

>  <CLASS_NAME>
active

$$$$
>  <STRUCTURE_STRING>
C[C@H](CO)N1C[C@H](C)[C@H](CN(C)Cc2ccccc2)OCCCC[C@H](C)Oc2ccc(NS(=O)(=O)c3ccc(F)cc3)cc2C1=O

>  <CLASS_NAME>
inactive

$$$$
>  <STRUCTURE_STRING>
Cc1ccc(CCSc2ccc(Cl)c(Cl)c2)cn1

>  <CLASS_NAME>
active

$$$$
